biological target: Proteasome Macropain subunit MB1 (Homo sapiens, UniProt P28074); experiment: Inhibition of chymotrypsin-like activity of human 20S proteasome pretreated for 15 mins followed by Suc-Leu-Leu-Val-Tyr-AMC substrate addition by fluorescence assay
Sequence (P28074 whole entry): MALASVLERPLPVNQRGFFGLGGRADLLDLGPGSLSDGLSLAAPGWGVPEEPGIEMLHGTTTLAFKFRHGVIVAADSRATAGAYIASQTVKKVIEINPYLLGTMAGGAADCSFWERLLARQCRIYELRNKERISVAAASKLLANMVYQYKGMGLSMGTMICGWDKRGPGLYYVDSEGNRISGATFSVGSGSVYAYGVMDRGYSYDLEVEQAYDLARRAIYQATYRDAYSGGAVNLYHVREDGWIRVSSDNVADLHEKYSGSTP

chemical smiles	IC50 (nM)
CC(C)(C)CNC(=O)C[C@H](NC(=O)N1CCN(C(=O)c2ccc(F)cc2)CC1)C(=O)N[C@@H](CCc1ccccc1)C(=O)NCc1ccccc1Cl	3.8
CC(C)(C)CNC(=O)C[C@H](NC(=O)N1CCC(NC(=O)c2ccc(F)cc2)CC1)C(=O)N[C@@H](CCc1ccccc1)C(=O)NCc1ccccc1Cl	1.2
CC(C)C[C@H](NC(=O)[C@H](CC(=O)NCC(C)(C)C)NC(=O)N1CCC(NC(=O)c2cnccn2)CC1)C(=O)NCc1ccccc1Cl	21.8
